B1: YPEL3 (parent)
chain: SKPKTFQAYLDDCHRRYSCAHCRA

# Variants of: B1
# Method Description: protein stability index of a GFP-peptide fusion (GPS, HEK-293T) (PSI 1-6); higher = more stable;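 further: lentivirally expressed fusions sorted by FACS into six bins by GFP to DsRed ratio, PSI derived from sequencing read proportions per bin multiplied by bin number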
# Experimental Parameters: c terminus: a fixed tail appended
If the reported protein stability index equals or exceeds 2, assign label 1. If not, assign label 0.

| Polymer Sequence | Group Label |
| --- | --- |
| SKPITFQAYLDDCHRRYSCAHCRA | label 0 |
| SKPKTFQAYLDDCHTRYSCAHCRA | label 1 |
| SKPKTFQAYLDCCHRRYSCAHCRA | label 1 |
| SKPKTFQAYLDDCVRRYSCAHCRA | label 1 |
| SKPKTFQAYLDDCHRRYSCANCRA | label 0 |
